// data source = ChEMBL document CHEMBL1201862

Tested on: SF-295
EXPERIMENTAL_PROTOCOL: NCI tumour cell line growth inhibition, 48 h
Calls of active or inactive are those of the source. Rule as the data show it: active = GI50 up to about 1.1 µM and inactive = higher.
Could you please report measured GI50 for the items listed next?

Some molecules with known GI50 results, for comparison:
{"columns": ["MOLECULE", "RECORDED_ENDPOINT", "MEAS_VALUE"],
 "data": [
  ["CC(CNCCCNCCNCCCNCO)[N+](=O)[O-] (centres undefined)", "GI50", "> 100 µM (inactive)"],
  ["COC(=O)c1[nH]c(=S)[nH]c(=O)c1-c1ccc(Cl)cc1", "GI50", "> 50 µM (inactive)"],
  ["O=c1ccn(C2OC(CO)C(O)C2F)c(=O)n1Cc1ccccc1 (centres undefined)", "GI50", "> 100 µM (inactive)"],
  ["CC1=NN(C(=O)Cc2ccccc2)C(=O)/C1=C/c1c(O)ccc2ccccc12", "GI50", "34.1 µM (inactive)"],
  ["OC(O)(C(F)(F)F)C(F)(F)F", "GI50", "> 100 µM (inactive)"],
  ["O=C(O)C1CC(O)CN1 (centres undefined)", "GI50", "> 100 µM (inactive)"]
]}

Below are some molecules; for each one, tell me its GI50.
1. Cc1ccc(C(=O)NN=C(/N=N/c2cccc(C)c2)c2ccc(N(C)C)cc2)cc1
2. COc1cccc(C=C(C#N)C#N)c1OC
3. CC(=O)Nc1ccc(/C=C2/NC(=S)N(/C=C3\C(=O)Oc4ccccc4C3=O)C2=O)cc1
4. CC1=NOC2(C1)C(=O)Nc1ccccc12 (centres undefined)
5. CC(C)(C)[Si](C)(C)OCC1OC(n2cc(F)c(=O)[nH]c2=O)CC1O[Si](C)(C)C(C)(C)C (centres undefined)
6. N#Cc1c(O)c(C=O)c(=O)n2c1[nH]c1ccccc12

Response:
> 100 µM (inactive)
> 100 µM (inactive)
49.8 µM (inactive)
> 100 µM (inactive)
6.97 µM (inactive)
> 100 µM (inactive)

Parameters: items (list). Returns: GI50 for each item.
1. CC1=NN(C(=O)Cc2ccccc2)C(=O)/C1=C\c1cccc(O)c1
2. CC(=O)OC(/C=C/c1ccccc1)=C(OC(C)C)/C1=C(\c2ccccc2)SCCCSC1=O

Response:
1. > 100 µM (inactive)
2. 56.8 µM (inactive)

Would you mind giving GI50 for every molecule in the list below?
1. CC(=O)Oc1ccc2c(c1)oc1c3ccc(OC(C)=O)cc3n(C)c(=O)c21
2. O=S1(=O)CCCS(=O)(=O)C(c2ccccc2)=C1c1ccccc1

Response:
1. 36.7 µM (inactive)
2. > 10 µM (inactive)

# batch size: 6; output GI50 per entry
1. COc1ccc2ccccc2c1C1OC(=O)c2ccccc21 (centres undefined)
2. CCC(C)c1cnc(CC(C)C)c(=O)[nH]1 (centres undefined)
3. O=C(NCCCl)NCc1ccccc1
4. Cc1ccc(NC(=O)/C(=N/N(C)C)C(C2OC(=O)c3ccccc32)[N+](=O)[O-])cc1 (centres undefined)
5. CCOc1ccc(/N=C/c2ccc3ccccc3n2)cc1
6. N#Cc1ccc(C2SCc3nc4ccccc4n32)cc1 (centres undefined)

Response:
["56.2 µM (inactive)", "> 100 µM (inactive)", "> 100 µM (inactive)", "> 100 µM (inactive)", "> 100 µM (inactive)", "74.3 µM (inactive)"]

// each molecule listed below needs its GI50
1. Cc1c(Cl)c(=O)oc2cc(OCC(=O)c3ccccc3)ccc12
2. COc1cc2c(=O)cnoc2cc1O

Response:
> 100 µM (inactive)
> 100 µM (inactive)
